Documented shrunken log2 fold change across a set of sequences
- System: Escherichia coli TOP10;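 further: peptides expressed intracellularly from a pBAD plasmid library in pooled LB shake-flask culture, induced with 0.3% L-arabinose, DNA abundance read by NGS, three biological replicates, DESeq2 with apeglm shrinkage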
- TEST_DESCRIPTION: shrunken log2 fold change of peptide-encoding DNA abundance (4.5 h post-induction vs induction); higher = less antimicrobial activity (less host growth inhibition)
- MEASUREMENT_SETUP: time post-induction: 4.5 h; library: site-saturation at positions 5, 18, 19, 20

Worked cases, answers included:
{"columns": ["RECORD_SEQUENCE", "shrunken log2 fold change"],
 "data": [
  ["RRIRYRPPRLPRPRPRPIVGPRP", 0.1],
  ["RRIRIRPPRLPRPRPRPLDWPRP", -0.418],
  ["RRIRSRPPRLPRPRPRPGVIPRP", -0.0412]
]}

Can you share its shrunken log2 fold change? I mean this sequence: RRIRHRPPRLPRPRPRPTWGPRP
0.0618

Can you share its shrunken log2 fold change? I mean this sequence: RRIRWRPPRLPRPRPRPHGYPRP
-0.018

Can you share its shrunken log2 fold change? I mean this sequence: RRIRVRPPRLPRPRPRPAVPPRP
0.0151
